Assay: Oral bioavailability in mice, Method B
Type: in vivo
Conditions: calculated based on brain exposure (AUC0-last), CD-1 mice, 10 mg/kg, Method B
reported_endpoint: F (%)
The figure you give is taken to be in %; do not add the unit.

Query :: Complete the entry with F for [2H]C([2H])([2H])N[C@@]1(c2ccccc2)CCCCC1=O [Compound 88R]
Result :: 43

Query :: Complete the entry with F for Cc1ccccc1[C@]1(N)CCCCC1=O [Compound 114R, (R)-2-amino-2-(o-tolyl)cyclohexan-1-one]
Result :: 25

Query :: Complete the entry with F for CN[C@]1(c2cccc(F)c2)CCCCC1=O [Compound 19S]
Result :: 14

Query :: Complete the entry with F for N[C@@]1(c2ccccc2)CCCCC1=O [Compound 11R, (R)-2-amino-2-phenyl-cyclohexan-1-one]
Result :: 35

Query :: Complete the entry with F for N[C@]1(c2ccccc2)CCCCC1=O [Compound 11S, (S)-2-amino-2-phenyl-cyclohexan-1-one]
Result :: 67

Query :: Complete the entry with F for Cc1ccccc1[C@@]1(N)CCCCC1=O [Compound 114S, (S)-2-amino-2-(o-tolyl)cyclohexan-1-one]
Result :: 35

====

Would you mind telling me the reported half-life of each entry?
Assay: Oral bioavailability in mice, Method B
Type: in vivo
Details: male, mouse; plasma, CD-1 mice, 10 mg/kg po, Method B; read-out: t1/2 (po)
The figure you give is taken to be in h; do not add the unit.

Query :: Complete the entry with half-life for N[C@@]1(c2ccccc2)CCCCC1=O [Compound 11R, (R)-2-amino-2-phenyl-cyclohexan-1-one]
Result :: 2.41

Query :: Complete the entry with half-life for CN[C@]1(c2cccc(F)c2)CCCCC1=O [Compound 19S]
Result :: 2.28

Query :: Complete the entry with half-life for Cc1ccccc1[C@]1(N)CCCCC1=O [Compound 114R, (R)-2-amino-2-(o-tolyl)cyclohexan-1-one]
Result :: 1.28

Query :: Complete the entry with half-life for [2H]C([2H])([2H])N[C@@]1(c2ccccc2)CCCCC1=O [Compound 88R]
Result :: 1.38

Query :: Complete the entry with half-life for Cc1ccccc1[C@@]1(N)CCCCC1=O [Compound 114S, (S)-2-amino-2-(o-tolyl)cyclohexan-1-one]
Result :: 1.32

====

Test: Oral bioavailability in rats, Method B
Format: in vivo
Details: male, rat; plasma, Sprague Dawley rats, 10 mg/kg po, Method B
Would you mind telling me the reported Cmax of each entry?
Answers without a unit are incomplete; give the number and then its unit.

Query :: Complete the entry with Cmax for O=C1CCCC[C@@]1(c1ccccc1)N1CCC1 [Compound 84S]
Result :: 69.8 ng/mL

Query :: Complete the entry with Cmax for CN[C@@]1(c2ccccc2)CCCCC1=O [Compound 14R]
Result :: 235 ng/mL

Query :: Complete the entry with Cmax for COCCNC1(c2ccccc2)CCCCC1=O (racemic)
Result :: 321 ng/mL

Query :: Complete the entry with Cmax for O=C1CCCCC1(c1ccccc1)N1CCCC1 (racemic)
Result :: 197 ng/mL

Query :: Complete the entry with Cmax for [2H]C([2H])([2H])N[C@@]1(c2ccccc2)CCCCC1=O [Compound 88R]
Result :: 393 ng/mL

Query :: Complete the entry with Cmax for O=C1CCCC[C@]1(c1ccccc1)N1CCC1 [Compound 84R]
Result :: 15.5 ng/mL

====

Experiment: HLM stability (Low Activity, Alternative Method)
Format: in vitro ADME
Conditions: both sexes, human, liver microsomes, pH 7.4, Condition 1 column, values marked *: Low Activity, 0.50 mg protein/mL
Everything with microsomal CLint at 1 μM lower than 20 µL/min/mg is false; everything else, including exactly 20 µL/min/mg, is true.

Query :: Form field: microsomal CLint at 1 μM at least 20 µL/min/mg? Entry: O=C1CCCC[C@]1(c1ccccc1)N1CCCC1 [Compound 27R]
Result :: false

Query :: Form field: microsomal CLint at 1 μM at least 20 µL/min/mg? Entry: Cc1ccccc1[C@@]1(N)CCCCC1=O [Compound 114S, (S)-2-amino-2-(o-tolyl)cyclohexan-1-one]
Result :: false

Query :: Form field: microsomal CLint at 1 μM at least 20 µL/min/mg? Entry: Cc1cccc(C2(N)CCCCC2=O)c1 (racemic)
Result :: false

Query :: Form field: microsomal CLint at 1 μM at least 20 µL/min/mg? Entry: Cc1ccccc1[C@]1(N)CCCCC1=O [Compound 114R, (R)-2-amino-2-(o-tolyl)cyclohexan-1-one]
Result :: false

Query :: Form field: microsomal CLint at 1 μM at least 20 µL/min/mg? Entry: O=C1CCCC[C@]1(c1ccccc1)N1CCOCC1 [Compound 31R]
Result :: true

Query :: Form field: microsomal CLint at 1 μM at least 20 µL/min/mg? Entry: CC1CN(C2(c3ccccc3)CCCCC2=O)C1 (racemic)
Result :: false

Query :: Form field: microsomal CLint at 1 μM at least 20 µL/min/mg? Entry: CNC1(c2cccc(C)c2)CCCCC1=O (racemic)
Result :: false

Query :: Form field: microsomal CLint at 1 μM at least 20 µL/min/mg? Entry: Cc1ccc(C2(N)CCCCC2=O)cc1 (racemic)
Result :: false

Query :: Form field: microsomal CLint at 1 μM at least 20 µL/min/mg? Entry: COCCN[C@]1(c2ccccc2)CCCCC1=O [Compound 29S]
Result :: false

Query :: Form field: microsomal CLint at 1 μM at least 20 µL/min/mg? Entry: CNC1(c2ccc(F)cc2)CCCCC1=O (racemic)
Result :: false

Query :: Form field: microsomal CLint at 1 μM at least 20 µL/min/mg? Entry: CCN(CC)[C@@]1(c2ccccc2)CCCCC1=O [Compound 25R]
Result :: true

Query :: Form field: microsomal CLint at 1 μM at least 20 µL/min/mg? Entry: CNC1(c2ccc(C)cc2)CCCCC1=O (racemic)
Result :: false

Query :: Form field: microsomal CLint at 1 μM at least 20 µL/min/mg? Entry: CCN(CC)[C@]1(c2ccccc2)CCCCC1=O [Compound 25S]
Result :: true

Query :: Form field: microsomal CLint at 1 μM at least 20 µL/min/mg? Entry: COCCN[C@@]1(c2ccccc2)CCCCC1=O [Compound 29R]
Result :: false

====

Assay: Oral bioavailability in mice, Method B
Format: in vivo
Conditions: male, mouse; plasma, CD-1 mice, 10 mg/kg po, Method B
Procedure: Animals. Male CD-1 mice were used in these studies Animals were randomly assigned to treatment groups and were fasted for 4 h before oral dosing. Drugs. […] They were then administered intravenously (iv) or orally (po) at a dose of 10 mg/kg (calculated based on freebase) and at a volume of 5 mL/kg body weight. […]
Everything with Cmax lower than 700 ng/mL is N; everything else, including exactly 700 ng/mL, is Y.

Query :: Form field: Cmax at least 700 ng/mL? Entry: [2H]C([2H])([2H])N[C@@]1(c2ccccc2)CCCCC1=O [Compound 88R]
Result :: N

Query :: Form field: Cmax at least 700 ng/mL? Entry: N[C@]1(c2ccccc2)CCCCC1=O [Compound 11S, (S)-2-amino-2-phenyl-cyclohexan-1-one]
Result :: Y

Query :: Form field: Cmax at least 700 ng/mL? Entry: Cc1ccccc1[C@]1(N)CCCCC1=O [Compound 114R, (R)-2-amino-2-(o-tolyl)cyclohexan-1-one]
Result :: N

Query :: Form field: Cmax at least 700 ng/mL? Entry: CN[C@]1(c2cccc(F)c2)CCCCC1=O [Compound 19S]
Result :: N

Query :: Form field: Cmax at least 700 ng/mL? Entry: Cc1ccccc1[C@@]1(N)CCCCC1=O [Compound 114S, (S)-2-amino-2-(o-tolyl)cyclohexan-1-one]
Result :: Y

Query :: Form field: Cmax at least 700 ng/mL? Entry: N[C@@]1(c2ccccc2)CCCCC1=O [Compound 11R, (R)-2-amino-2-phenyl-cyclohexan-1-one]
Result :: Y

====

Target: MK-801 binding site of the N-methyl-D-aspartate receptor (NMDAR)
Experiment: NMDAR radioligand binding with [3H]MK-801, Method B
Parameters: species or system Sprague Dawley rat
Settings: MK-801 site, Method B, male Sprague Dawley rat cortex, 5.0 nM [3H]MK-801; read-out: NMDAR Ki ± SEM
reported_endpoint: pKi
pKi (log units): -log10 of the concentration in mol/L.

Query :: Complete the entry with pKi for [2H]C([2H])([2H])N[C@@]1(c2ccccc2)CCCCC1=O [Compound 88R]
Result :: 5.47

Query :: Complete the entry with pKi for CNC1(c2ccc(C)cc2)CCCCC1=O (racemic) [Compound 119rac]
Result :: 4.78

Query :: Complete the entry with pKi for O=C1CCCC[C@]1(c1ccccc1)N1CCCCC1 [Compound 26R]
Result :: 5.43

Query :: Complete the entry with pKi for N[C@@]1(c2ccccc2)CCCCC1=O [Compound 11R, (R)-2-amino-2-phenyl-cyclohexan-1-one]
Result :: 5.03

Query :: Complete the entry with pKi for O=C1CCCC[C@@]1(c1ccccc1)N1CCCC1 [Compound 27S]
Result :: 5.96

Query :: Complete the entry with pKi for CN[C@]1(c2ccccc2)CCCCC1=O [Compound 14S]
Result :: 6.16

Query :: Complete the entry with pKi for Cc1ccc(C2(N)CCCCC2=O)cc1 (racemic) [Compound 120rac, 2-amino-2-(p-tolyl)cyclohexan-1-one]
Result :: 4.64

Query :: Complete the entry with pKi for O=C1CCCC[C@]1(c1ccccc1)N1CCCC1 [Compound 27R]
Result :: 5.51

Query :: Complete the entry with pKi for O=C1CCCCC1(c1ccccc1)N1CCCC1 (racemic) [Compound 27rac]
Result :: 5.96

Query :: Complete the entry with pKi for CN[C@]1(c2cccc(F)c2)CCCCC1=O [Compound 19S]
Result :: 5.68

Query :: Complete the entry with pKi for O=C1CCCC[C@]1(NCCO)c1ccccc1 [Compound 30S]
Result :: 4.64

Query :: Complete the entry with pKi for CNC1(c2cccc(C)c2)CCCCC1=O (racemic) [Compound 23rac]
Result :: 5.34

Query :: Complete the entry with pKi for CN[C@@]1(c2cccc(F)c2)CCCCC1=O [Compound 19R]
Result :: 5.17

Query :: Complete the entry with pKi for O=C1CCCC[C@@]1(c1ccccc1)N1CCC1 [Compound 84S]
Result :: 5.89

Query :: Complete the entry with pKi for CCN(CC)[C@]1(c2ccccc2)CCCCC1=O [Compound 25S]
Result :: 5.28

Query :: Complete the entry with pKi for O=C1CCCC[C@@]1(NCCF)c1ccccc1 [Compound 86R]
Result :: 5.15

Query :: Complete the entry with pKi for CN[C@]1(c2ccccc2C)CCCCC1=O [Compound 38S]
Result :: 6.62

Query :: Complete the entry with pKi for O=C1CCCC[C@]1(NCCF)c1ccccc1 [Compound 86S]
Result :: 5.89

Query :: Complete the entry with pKi for CN[C@@]1(c2ccccc2C)CCCCC1=O [Compound 38R]
Result :: 6.13

Query :: Complete the entry with pKi for NC1(c2ccc(F)cc2)CCCCC1=O (racemic) [Compound 117rac]
Result :: 5.08
